Each recorded value in this set is attributed to ChEMBL document CHEMBL5055646.

molecular target: Protein cereblon/Tyrosine-protein kinase BTK (Homo sapiens, UniProt Q06187+Q96SW2, C481S); assay: Protac activity at BTK C481S mutant/CRBN in human TMD8 cells assessed as induction of BTK degradation measured after 1 hr by Western blot analysis; assay type: cell-based
Sequence (Q06187 2-659 C481S limits assumed, stated change not applied): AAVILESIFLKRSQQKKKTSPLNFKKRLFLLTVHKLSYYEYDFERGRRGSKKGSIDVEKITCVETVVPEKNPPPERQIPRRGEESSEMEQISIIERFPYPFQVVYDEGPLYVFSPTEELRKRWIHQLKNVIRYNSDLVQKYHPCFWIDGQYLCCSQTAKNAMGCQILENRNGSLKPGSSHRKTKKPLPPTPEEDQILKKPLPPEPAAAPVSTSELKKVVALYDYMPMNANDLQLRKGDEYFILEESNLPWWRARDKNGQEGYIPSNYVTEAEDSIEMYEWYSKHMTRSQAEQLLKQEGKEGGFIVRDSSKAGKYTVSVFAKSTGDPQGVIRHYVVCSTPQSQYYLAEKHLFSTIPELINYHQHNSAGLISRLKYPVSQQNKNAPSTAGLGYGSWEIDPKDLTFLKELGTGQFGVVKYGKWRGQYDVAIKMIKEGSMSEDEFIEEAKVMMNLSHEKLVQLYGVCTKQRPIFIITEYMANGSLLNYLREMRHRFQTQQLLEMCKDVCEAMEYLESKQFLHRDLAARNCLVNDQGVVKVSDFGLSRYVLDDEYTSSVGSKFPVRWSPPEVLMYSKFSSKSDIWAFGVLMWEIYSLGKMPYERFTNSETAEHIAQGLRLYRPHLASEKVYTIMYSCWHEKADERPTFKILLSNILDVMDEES
Sequence (Q96SW2 whole entry, stated change not applied): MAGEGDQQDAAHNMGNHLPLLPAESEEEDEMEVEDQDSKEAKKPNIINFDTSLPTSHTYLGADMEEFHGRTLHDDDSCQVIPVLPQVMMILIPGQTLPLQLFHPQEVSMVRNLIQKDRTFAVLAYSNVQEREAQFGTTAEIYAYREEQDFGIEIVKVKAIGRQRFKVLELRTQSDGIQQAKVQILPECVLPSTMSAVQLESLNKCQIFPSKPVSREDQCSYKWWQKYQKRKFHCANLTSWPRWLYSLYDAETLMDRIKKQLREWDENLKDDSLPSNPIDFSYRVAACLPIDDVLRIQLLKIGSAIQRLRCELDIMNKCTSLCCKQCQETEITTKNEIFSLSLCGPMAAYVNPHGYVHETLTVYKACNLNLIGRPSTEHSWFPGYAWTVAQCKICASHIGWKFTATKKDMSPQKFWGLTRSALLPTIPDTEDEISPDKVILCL
experimental-endpoint: DC50 (µM)
Record the value in µM, omitting the unit from your answer.

QUERY: State its DC50: O=C(CNc1ncnc2[nH]cc(C(=O)c3ccc(Oc4ccccc4)cc3Cl)c12)NCCOCCOCCOCCOCCOCCNc1cccc2c1C(=O)N(C1CCC(=O)NC1=O)C2=O (stereo unspecified)
RESULT: 0.0804

QUERY: State its DC50: O=C(CNc1ncnc2[nH]cc(C(=O)c3ccc(Oc4ccccc4)cc3Cl)c12)NCCOCCOCCOCCOCCNc1cccc2c1C(=O)N(C1CCC(=O)NC1=O)C2=O (stereo unspecified)
RESULT: 0.0527

QUERY: State its DC50: O=C(CNc1ncnc2[nH]cc(C(=O)c3ccc(Oc4ccccc4)cc3Cl)c12)NCCOCCOCCOCCOCCOCCOCCNc1cccc2c1C(=O)N(C1CCC(=O)NC1=O)C2=O (stereo unspecified)
RESULT: 0.0523

QUERY: State its DC50: O=C1CCC(N2C(=O)c3cccc(NCCOCCOCCOCCOCCNC(=O)N[C@H]4CC[C@@H](Nc5ncnc6[nH]cc(C(=O)c7ccc(Oc8ccccc8)cc7Cl)c56)CC4)c3C2=O)C(=O)N1 (stereo partly specified)
RESULT: 0.0379

QUERY: State its DC50: O=C1CCC(N2C(=O)c3cccc(NCCOCCOCCOCCNC(=O)N[C@H]4CC[C@@H](Nc5ncnc6[nH]cc(C(=O)c7ccc(Oc8ccccc8)cc7Cl)c56)CC4)c3C2=O)C(=O)N1 (stereo partly specified)
RESULT: 0.0301

QUERY: State its DC50: O=C1CCC(N2C(=O)c3cccc(NCCOCCOCCOCCOCCOCCNC(=O)N[C@H]4CC[C@@H](Nc5ncnc6[nH]cc(C(=O)c7ccc(Oc8ccccc8)cc7Cl)c56)CC4)c3C2=O)C(=O)N1 (stereo partly specified)
RESULT: 0.0429

* * *

assay: Efflux ratio of apparent permeability from basolateral to apical side over apical to basolateral side in human Caco-2 cells; assay type: ADME, cell-based
experimental-endpoint: efflux ratio

QUERY: State its efflux ratio: O=C1CCC(N2C(=O)c3cccc(NCCOCCOCCOCCOCCOCCNC(=O)N[C@H]4CC[C@@H](Nc5ncnc6[nH]cc(C(=O)c7ccc(Oc8ccccc8)cc7Cl)c56)CC4)c3C2=O)C(=O)N1 (stereo partly specified)
RESULT: > 1.4

* * *

target: Protein cereblon/Tyrosine-protein kinase BTK (Homo sapiens, UniProt Q06187+Q96SW2); assay: Protac activity at BTK/CRBN in human JeKo-1 cells assessed as induction of BTK degradation at 100 nM measured after 1 hr by Western blot analysis relative to control; assay type: cell-based
Sequence (Q06187 2-659 limits assumed): as the sequence (Q06187 2-659 C481S limits assumed, stated change not applied) above, with S480C counted along it
Sequence (Q96SW2 whole entry partner): as the sequence (Q96SW2 whole entry, stated change not applied) above
Answer each item with its documented Activity.
Record the value in %, omitting the unit from your answer.

QUERY: State its Activity: O=C1CCC(N2C(=O)c3cccc(NCCOCCOCCOCCOCCOCCNC(=O)N[C@H]4CC[C@@H](Nc5ncnc6[nH]cc(C(=O)c7ccc(Oc8ccccc8)cc7Cl)c56)CC4)c3C2=O)C(=O)N1 (stereo partly drawn)
RESULT: 93.7

QUERY: State its Activity: O=C(CNc1ncnc2[nH]cc(C(=O)c3ccc(Oc4ccccc4)cc3Cl)c12)NCCOCCOCCNc1cccc2c1C(=O)N(C1CCC(=O)NC1=O)C2=O (stereo not drawn)
RESULT: 33

QUERY: State its Activity: O=C(CNc1ncnc2[nH]cc(C(=O)c3ccc(Oc4ccccc4)cc3Cl)c12)NCCOCCOCCOCCOCCNc1cccc2c1C(=O)N(C1CCC(=O)NC1=O)C2=O (stereo not drawn)
RESULT: 55.6
